Entry source: patent US12649744B2

I'd appreciate it if you could supply pIC50 values for the items below.
biological target: human recombinant GPR65 (Homo sapiens, UniProt Q8IYL9); experiment: Human GPR65 cAMP HTRF antagonist assay; format: cell-based; conditions: 1321N1-hrGPR65 cells, assay pH of 7.2, cAMP HTRF; read-out: hGPR65 IC50
Sequence (Q8IYL9 whole entry): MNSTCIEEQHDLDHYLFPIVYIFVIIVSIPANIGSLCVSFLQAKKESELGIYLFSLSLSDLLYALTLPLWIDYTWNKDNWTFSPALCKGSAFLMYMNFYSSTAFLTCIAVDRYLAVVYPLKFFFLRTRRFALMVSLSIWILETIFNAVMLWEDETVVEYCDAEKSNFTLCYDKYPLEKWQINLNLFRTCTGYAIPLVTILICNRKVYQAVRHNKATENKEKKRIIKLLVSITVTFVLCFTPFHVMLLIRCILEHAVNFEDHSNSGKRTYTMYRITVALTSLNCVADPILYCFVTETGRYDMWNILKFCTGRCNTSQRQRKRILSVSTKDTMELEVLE
pIC50: −log10 of the molar value.

Query string: GET pIC50 | system: human recombinant GPR65 (Homo sapiens, UniProt Q8IYL9) | item: `O=C(Nc1nnc(C(F)(F)F)s1)N1[C@H]2CC[C@@H]1c1ccnc(F)c1C2`
Result string: > 6.30

Query string: GET pIC50 | system: human recombinant GPR65 (Homo sapiens, UniProt Q8IYL9) | item: `N#Cc1cnc(NC(=O)N2[C@H]3CC[C@@H]2c2ccnc(F)c2C3)c(C(F)(F)F)c1`
Result string: > 6.30

Query string: GET pIC50 | system: human recombinant GPR65 (Homo sapiens, UniProt Q8IYL9) | item: `O=C(Nc1cc(Cl)c(C(F)(F)F)cn1)N1[C@H]2CC[C@@H]1c1ccnc(F)c1C2`
Result string: > 6.30

Query string: GET pIC50 | system: human recombinant GPR65 (Homo sapiens, UniProt Q8IYL9) | item: `O=C(Nc1cnc(-n2nccn2)c(Cl)c1)N1[C@H]2CC[C@@H]1c1ccnc(F)c1C2`
Result string: 5.30 to 6.30

Query string: GET pIC50 | system: human recombinant GPR65 (Homo sapiens, UniProt Q8IYL9) | item: `N#Cc1ccc(NC(=O)N2[C@H]3CC[C@@H]2c2ccnc(F)c2C3)nc1C(F)(F)F`
Result string: 5.30 to 6.30

Query string: GET pIC50 | system: human recombinant GPR65 (Homo sapiens, UniProt Q8IYL9) | item: `O=C(Nc1nnc(C2CC2)s1)N1[C@H]2CC[C@@H]1c1ccnc(F)c1C2`
Result string: 5.30 to 6.30

Query string: GET pIC50 | system: human recombinant GPR65 (Homo sapiens, UniProt Q8IYL9) | item: `Cc1nonc1NC(=O)N1[C@H]2CC[C@@H]1c1ccnc(F)c1C2`
Result string: 5.30 to 6.30

Query string: GET pIC50 | system: human recombinant GPR65 (Homo sapiens, UniProt Q8IYL9) | item: `O=C(Nc1cc(C(F)(F)F)on1)N1[C@H]2CC[C@@H]1c1ccnc(F)c1C2`
Result string: > 6.30

Query string: GET pIC50 | system: human recombinant GPR65 (Homo sapiens, UniProt Q8IYL9) | item: `O=C(Nc1ccc(OC(F)(F)F)cn1)N1[C@H]2CC[C@@H]1c1ccnc(F)c1C2`
Result string: > 6.30

Query string: GET pIC50 | system: human recombinant GPR65 (Homo sapiens, UniProt Q8IYL9) | item: `O=C(Nc1nc(-c2ccccc2)no1)N1[C@H]2CC[C@@H]1c1ccnc(F)c1C2`
Result string: 5.30 to 6.30

Query string: GET pIC50 | system: human recombinant GPR65 (Homo sapiens, UniProt Q8IYL9) | item: `O=C(Nc1cnc(Cl)c(Cl)c1)N1[C@H]2CC[C@@H]1c1c[nH]c(=O)cc1C2`
Result string: > 6.30

Query string: GET pIC50 | system: human recombinant GPR65 (Homo sapiens, UniProt Q8IYL9) | item: `O=C(Nc1nnc(-c2ccccc2)s1)N1[C@H]2CC[C@@H]1c1ccnc(F)c1C2`
Result string: > 6.30

Query string: GET pIC50 | system: human recombinant GPR65 (Homo sapiens, UniProt Q8IYL9) | item: `O=C(Nc1ccc2nc(C(F)(F)F)ccc2c1)N1[C@H]2CC[C@@H]1c1ccnc(F)c1C2`
Result string: > 6.30

Query string: GET pIC50 | system: human recombinant GPR65 (Homo sapiens, UniProt Q8IYL9) | item: `O=C(Nc1nnc(C2CCOCC2)s1)N1[C@H]2CC[C@@H]1c1ccnc(F)c1C2`
Result string: < 5.30

Query string: GET pIC50 | system: human recombinant GPR65 (Homo sapiens, UniProt Q8IYL9) | item: `O=C(Nc1cc(Cl)c(Cl)cn1)N1[C@H]2CC[C@@H]1c1c[nH]c(=O)cc1C2`
Result string: > 6.30

Query string: GET pIC50 | system: human recombinant GPR65 (Homo sapiens, UniProt Q8IYL9) | item: `O=C(Nc1cnc(Cl)cc1F)N1[C@H]2CC[C@@H]1c1ccnc(F)c1C2`
Result string: 5.30 to 6.30

Query string: GET pIC50 | system: human recombinant GPR65 (Homo sapiens, UniProt Q8IYL9) | item: `O=C(Nc1cc2cn(C(F)F)nc2cn1)N1[C@H]2CC[C@@H]1c1ccnc(F)c1C2`
Result string: < 5.30

---

molecular target: human recombinant GPR65 (Homo sapiens, UniProt Q8IYL9); assay: Human GPR65 cAMP HTRF antagonist assay; format: cell-based; conditions: 1321N1-hrGPR65 cells, assay pH of 7.2, cAMP HTRF; read-out: hGPR65 IC50
readout name: IC50

Query string: Please supply the value of reported IC50 for the item `O=C(Nc1ccc(C(F)(F)F)cn1)N1[C@H]2CC[C@@H]1c1ccnc(F)c1C2`
Result string: < 500 nM

Query string: Please supply the value of reported IC50 for the item `N#Cc1ccc(NC(=O)N2[C@H]3CC[C@@H]2c2ccnc(F)c2C3)nc1Cl`
Result string: 500 to 5000 nM

Query string: Please supply the value of reported IC50 for the item `O=C(Nc1nnc(-c2ccncc2)s1)N1[C@H]2CC[C@@H]1c1ccnc(F)c1C2`
Result string: 500 to 5000 nM

Query string: Please supply the value of reported IC50 for the item O=C(Nc1cc(Cl)c(C(F)(F)F)cn1)N1C2CCC1c1cncnc1C2 (racemic)
Result string: 500 to 5000 nM

Query string: Please supply the value of reported IC50 for the item `COC(=O)c1cc(NC(=O)N2[C@H]3CC[C@@H]2c2ccnc(F)c2C3)no1`
Result string: 500 to 5000 nM

Query string: Please supply the value of reported IC50 for the item `O=C(Nc1ccc(Cl)c(Cl)n1)N1[C@H]2CC[C@@H]1c1c[nH]c(=O)cc1C2`
Result string: > 5000 nM

Query string: Please supply the value of reported IC50 for the item `O=C(Nc1ccc2nc(C(F)(F)F)ccc2c1)N1[C@H]2CC[C@@H]1c1c[nH]c(=O)cc1C2`
Result string: < 500 nM

Query string: Please supply the value of reported IC50 for the item `O=C(Nc1cc(C(F)(F)F)on1)N1[C@H]2CC[C@@H]1c1c[nH]c(=O)cc1C2`
Result string: < 500 nM
